# target.system: extracellular region of human V158 FcγRIIIa fused with glutathione S-Transferase (GST) (human, UniProt P08637 17-208)
# Sequence (P08637 17-208 F176V): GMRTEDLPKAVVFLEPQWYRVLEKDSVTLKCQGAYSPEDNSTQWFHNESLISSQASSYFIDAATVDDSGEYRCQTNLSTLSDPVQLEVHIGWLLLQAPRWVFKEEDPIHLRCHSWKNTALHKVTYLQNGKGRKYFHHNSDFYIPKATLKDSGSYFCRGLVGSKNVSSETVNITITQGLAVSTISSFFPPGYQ
# test.protocol: AlphaScreen competition
Threshold check on FcγRIIIa Fold: at or above 0.1 fold vs WT gives fulfilled, strictly below gives not fulfilled.

binder="S239D/A330Y/I332E/L235D trastuzumab (antibody) heavy: DKTHTCPPCPAPELDGGPDVFLFPPKPKDTLMISRTPEVTCVVVDVSHEDPEVKFNWYVDGVEVHNAKTKPREEQYNSTYRVVSVLTVLHQDWLNGKEYKCKVSNKALPYPEEKTISKAKGQPREPQVYTLPPSRDELTKNQVSLTCLVKGFYPSDIAVEWESNGQPENNYKTTPPVLDSDGSFFLYSKLTVDKSRWQQGNVFSCSVMHEALHNHYTQKSLSLSPGK" classification=fulfilled
binder="S239D/A330Y/I332E/V264T trastuzumab (antibody) heavy: DKTHTCPPCPAPELLGGPDVFLFPPKPKDTLMISRTPEVTCVVTDVSHEDPEVKFNWYVDGVEVHNAKTKPREEQYNSTYRVVSVLTVLHQDWLNGKEYKCKVSNKALPYPEEKTISKAKGQPREPQVYTLPPSRDELTKNQVSLTCLVKGFYPSDIAVEWESNGQPENNYKTTPPVLDSDGSFFLYSKLTVDKSRWQQGNVFSCSVMHEALHNHYTQKSLSLSPGK" classification=fulfilled
binder="F243L/V262I/V264W alemtuzumab (antibody) heavy: DKTHTCPPCPAPELLGGPSVFLLPPKPKDTLMISRTPEVTCIVWDVSHEDPEVKFNWYVDGVEVHNAKTKPREEQYNSTYRVVSVLTVLHQDWLNGKEYKCKVSNKALPAPIEKTISKAKGQPREPQVYTLPPSRDELTKNQVSLTCLVKGFYPSDIAVEWESNGQPENNYKTTPPVLDSDGSFFLYSKLTVDKSRWQQGNVFSCSVMHEALHNHYTQKSLSLSPGK" classification="not fulfilled"

stdin: Confirm if FcγRIIIa Fold reported for the binder F241W/F243W/V262A/V264A alemtuzumab (antibody) heavy: DKTHTCPPCPAPELLGGPSVWLWPPKPKDTLMISRTPEVTCAVADVSHEDPEVKFNWYVDGVEVHNAKTKPREEQYNSTYRVVSVLTVLHQDWLNGKEYKCKVSNKALPAPIEKTISKAKGQPREPQVYTLPPSRDELTKNQVSLTCLVKGFYPSDIAVEWESNGQPENNYKTTPPVLDSDGSFFLYSKLTVDKSRWQQGNVFSCSVMHEALHNHYTQKSLSLSPGK is 0.1 fold vs WT or above.
stdout: not fulfilled
